The molecules listed here are annotated with their log10 microsomal CLint at 1 h, 2 µM.
Experiment: Rat liver microsome stability assay
Format: in vitro ADME
Details: liver microsomes, pH 7.4; rat liver microsome 1 mg/ml, test compound 2 μM, NADPH 1 mM, 37° C.; read-out: Rat Liver Microsome CLint (μL/min/mg protein)
Assay Endpoint: log10 microsomal CLint at 1 h, 2 µM (log10 of the value in µL/min/mg)

{"Molecule": "N#C/C(=C(/O)c1cc(O)c(O)c([N+](=O)[O-])c1)c1ccncn1", "Endpoint Result": 1.04}
{"Molecule": "N#C/C(=C\\c1cc(O)c(O)c([N+](=O)[O-])c1)C(=O)Nc1nccs1", "Endpoint Result": 0.87}
{"Molecule": "N#C/C(=C(/O)c1cc(O)c(O)c([N+](=O)[O-])c1)c1cnccn1", "Endpoint Result": 0.46}
{"Molecule": "CCN(CC)C(=O)/C(C#N)=C(\\O)c1cc(O)c(O)c([N+](=O)[O-])c1", "Endpoint Result": -1.00}
{"Molecule": "N#C/C(=C\\c1cc(O)c(O)c([N+](=O)[O-])c1)C(=O)N1CCC1", "Endpoint Result": 2.45}
{"Molecule": "N#C/C(=C\\c1cc(O)c(O)c([N+](=O)[O-])c1)c1ccncn1", "Endpoint Result": 1.10}
{"Molecule": "N#C/C(C(=O)Nc1nccs1)=C(/O)c1cc(O)c(O)c([N+](=O)[O-])c1", "Endpoint Result": -0.22}
{"Molecule": "N#C/C(C(=O)N1CCCCC1)=C(/O)c1cc(O)c(O)c([N+](=O)[O-])c1", "Endpoint Result": 0.34}
{"Molecule": "N#C/C(=C\\c1cc(O)c(O)c([N+](=O)[O-])c1)c1cnccn1", "Endpoint Result": 1.32}
{"Molecule": "N#C/C(=C\\c1cc(O)c(O)c([N+](=O)[O-])c1)c1cnc(C(=O)O)cn1", "Endpoint Result": 0.20}
{"Molecule": "N#C/C(=C(/O)c1cc(O)c(O)c([N+](=O)[O-])c1)c1cnc(C(=O)O)cn1", "Endpoint Result": 0.04}
{"Molecule": "N#C/C(=C(/O)c1cc(O)c(O)c([N+](=O)[O-])c1)c1nccs1", "Endpoint Result": -0.30}
{"Molecule": "N#C/C(=C(/O)c1cc(O)c(O)c([N+](=O)[O-])c1)c1ccccn1", "Endpoint Result": 0.95}
{"Molecule": "CCN(CC)C(=O)/C(C#N)=C(\\N)c1cc(O)c(O)c([N+](=O)[O-])c1 [Compound 347N]", "Endpoint Result": 0.69}
{"Molecule": "N#C/C(=C\\c1cc(O)c(O)c([N+](=O)[O-])c1)C(=O)N1CCCCC1", "Endpoint Result": 1.63}
{"Molecule": "N#C/C(C(=O)N1CCCCC1)=C(/N)c1cc(O)c(O)c([N+](=O)[O-])c1 [Compound 661N]", "Endpoint Result": 1.01}
{"Molecule": "N#C/C(=C\\c1cc(O)c(O)c([N+](=O)[O-])c1)c1nccs1", "Endpoint Result": 2.42}

---

Molecular target: FTO (Homo sapiens, UniProt Q9C0B1)
Sequence (Q9C0B1 whole entry): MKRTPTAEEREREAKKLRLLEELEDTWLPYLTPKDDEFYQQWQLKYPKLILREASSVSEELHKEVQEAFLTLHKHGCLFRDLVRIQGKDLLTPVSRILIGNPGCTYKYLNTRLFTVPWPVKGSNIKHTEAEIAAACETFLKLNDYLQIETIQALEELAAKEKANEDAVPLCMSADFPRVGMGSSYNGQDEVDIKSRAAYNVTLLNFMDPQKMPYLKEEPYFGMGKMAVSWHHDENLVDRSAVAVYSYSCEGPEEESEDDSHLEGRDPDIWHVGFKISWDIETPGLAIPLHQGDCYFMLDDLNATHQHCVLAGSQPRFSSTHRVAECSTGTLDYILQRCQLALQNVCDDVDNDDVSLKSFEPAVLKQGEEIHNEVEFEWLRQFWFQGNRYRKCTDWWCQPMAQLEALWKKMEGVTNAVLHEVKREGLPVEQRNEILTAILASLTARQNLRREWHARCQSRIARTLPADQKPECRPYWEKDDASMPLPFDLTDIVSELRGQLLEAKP
Assay: demethylation reaction catalyzed by FTO (enzymatic inhibition, HPLC-MS/MS of N6-mA and A)
Type: biochemical
Details: selectivity table; read-out: FTO
The compounds listed here are annotated with their IC50.

{"Compound": "N#C/C(=C(/O)c1cc(O)c(O)c([N+](=O)[O-])c1)c1cnccn1", "Unit Text": "nM", "IC50": 500}
{"Compound": "N#C/C(C(=O)Nc1nccs1)=C(/O)c1cc(O)c(O)c([N+](=O)[O-])c1", "Unit Text": "nM", "IC50": 500}
{"Compound": "N#C/C(=C\\c1cc(O)c(O)c([N+](=O)[O-])c1)C(=O)N1CCC1", "Unit Text": "nM", "IC50": 1000}
{"Compound": "N#C/C(=C\\c1cc(O)c(O)c([N+](=O)[O-])c1)c1nccs1", "Unit Text": "nM", "IC50": 1000}
{"Compound": "N#C/C(=C\\c1cc(O)c(O)c([N+](=O)[O-])c1)C(=O)Nc1nccs1", "Unit Text": "nM", "IC50": 1000}
{"Compound": "N#C/C(C(=O)N1CCCCC1)=C(/N)c1cc(O)c(O)c([N+](=O)[O-])c1 [Compound 661N]", "Unit Text": "nM", "IC50": 750}
{"Compound": "N#C/C(=C(/O)c1cc(O)c(O)c([N+](=O)[O-])c1)c1nccs1", "Unit Text": "nM", "IC50": 1500}
{"Compound": "N#C/C(=C(/O)c1cc(O)c(O)c([N+](=O)[O-])c1)c1ccccn1", "Unit Text": "nM", "IC50": 750}
{"Compound": "CCN(CC)C(=O)C(C#N)=C(NC)c1cc(O)c(O)c([N+](=O)[O-])c1 [Compound 347M]", "Unit Text": "nM", "IC50": 1000}
{"Compound": "N#C/C(C(=O)N1CCCCC1)=C(/O)c1cc(O)c(O)c([N+](=O)[O-])c1", "Unit Text": "nM", "IC50": 1000}
{"Compound": "N#C/C(=C(/O)c1cc(O)c(O)c([N+](=O)[O-])c1)c1ccncn1", "Unit Text": "nM", "IC50": 500}
